- Study Target: T1, human Her2 (ECD)-Fc protein (human, UniProt P04626 23-652)
- T1 construct: extracellular domain; Made in HEK293F cells; also called hHer2 (ECD)-Fc antigen; Her2 (ECD)-Fc antigen; not shown: TEV restriction site at the C-terminal of hHer2 (ECD); IgG1 Fc of the pFUSE-IgG1 vector
- Procedure Text: PE-ELISA, A405 of antigen well over control well
We begin with a simple list: items and their reported Ratio(+/-).
Readout: Ratio(+/-)

- Binder: "Nanobody No. 31 (VHH, also called 31; not shown: tags (HA, His) implied by anti-HA detection and nickel column) VHH: QVQLQESGGGSVQAGETLRLSCTASGFTFNDSNMGWYRQAPGHECELVSTISSDGSTYYADSVKGRFTISQNNARNTVYLQMNSLKPEDTAVYYCAGDWGYELGICTSLDYWGQGTQVTVSS"
  Readout: "Ratio(+/-)"
  Endpoint Value: 21.4
- Binder: "Nanobody No. 14 (VHH, also called 14; not shown: tags (HA, His) implied by anti-HA detection and nickel column) VHH: QVQLQESGGGSVQAGETLRLSCTASGFTFDDSDMGWYRQAPGNECELVSRISSDGSTYYADSVKGRFTISQDNAKNTVYLQMNSLKPEDTAVYYCAALEWEYELGTCEALDYWGQGTQVTVSS"
  Readout: "Ratio(+/-)"
  Endpoint Value: 24.4
- Binder: "Nanobody No. 17 (VHH, camel VHH from pMECs phage display vector; also called Antibody no; 17; not shown: tags (HA, His) implied by anti-HA detection and nickel column) VHH: QVQLQESGGGSVQAGGSLRLSCTASGFTFDDSDMGWYRQAPGNECELVSTISSDGSTYYADSVKGRFTISQDNAKNTVYLQMNSLKPEDTAVYYCADVQIPYGLGTCESLDYWGRGTQVTVSS"
  Readout: "Ratio(+/-)"
  Endpoint Value: 23.8
- Binder: "Nanobody No. 11 (VHH, also called 11; not shown: tags (HA, His) implied by anti-HA detection and nickel column) VHH: QVQLQESGGGSVQAGETLRLSCTASGFTFDDSDMGWYRQAPGNECELVSHISSGGSTYYADSVKGRFTISQDNAKNTVYLQMNSLKPEDTAVYYCAADGSNYELGTCAALDYWGRGTQVTVSS"
  Readout: "Ratio(+/-)"
  Endpoint Value: 25.5
- Binder: "Nanobody No. 20 (VHH, also called 20; not shown: tags (HA, His) implied by anti-HA detection and nickel column) VHH: QVQLQESGGGSVQAGGSLRLSCTASGFTFDDSVMGWFRKAPGNECELVSTISSDGSTYYADSVKGRFTISQDNAKNTVYLQMNNLKPEDTAVYYCAAINSGYELGTCESLDYWGRGTQVTVSS"
  Readout: "Ratio(+/-)"
  Endpoint Value: 10.2
- Binder: "Nanobody No. 13 (VHH, camel VHH from pMECs phage display vector; also called Antibody no; 13; not shown: tags (HA, His) implied by anti-HA detection and nickel column) VHH: QVQLQESGGGSVQAGETLRLSCTASGFTFDDSDMGWYRQAPGNECELVSTISADGSTFYADSVKGRFTISQDNAKNTVYLQMNSLKPEDTAVYYCASPENEYELGTCEALDYWGQGTQVTVSS"
  Readout: "Ratio(+/-)"
  Endpoint Value: 25.1
- Binder: "Nanobody No. 22 (VHH, camel VHH from pMECs phage display vector; also called Antibody no; 22; not shown: tags (HA, His) implied by anti-HA detection and nickel column) VHH: QVQLQESGGGSVQAGGSLRLSCTASGFTFDDSDMGWYRQAPGNECELVSRISRDGTTYYADSVKGRFTISQDNAKNTVYLQMNSLKPEDTAVYYCADINSGYELGTCESLDYWGRGTQVTVSS"
  Readout: "Ratio(+/-)"
  Endpoint Value: 21.3
- Binder: "Nanobody No. 16 (VHH, also called 16; not shown: tags (HA, His) implied by anti-HA detection and nickel column) VHH: QVQLQESGGGSVQAGGSLRLSCTASGFTFDDSDMVWYRQAPGNECELVSRISSDGSTYYADSVKGRFTISQDNAKNTVYLQMNSLKPEDTAVYYCAALEWEYELGTCEALDYWGQGTQVTVSS"
  Readout: "Ratio(+/-)"
  Endpoint Value: 23.5
- Binder: "Nanobody No. 8 (VHH, not shown: tags (HA, His) implied by anti-HA detection and nickel column) VHH: QVQLQESGGGSVQAGETLRLSCTASGFTFDESVMGWYRQAPGNECELVSTISSDGSTYYSNSVKGRFTISQDNAKNTVYLQMNSLKPEDTAVYYCAADDHTYELGTCEALNYWGRGTQVTVSS"
  Readout: "Ratio(+/-)"
  Endpoint Value: 28

The values you see were collected from patent US20230263916A1.
